# procedure text: qHTS RealTime-Glo MT Cell Viability Assay in HEK293 cells - 24 hour (AID 1224886); further: top concentration of the series differs between compounds; nearly all actives have a fitted effect of over 50% in size
# measurement context: RealTime-Glo luminescence; series mostly up to 76.8 µM
Inconclusive results are not listed. The source made the active and inactive calls. The call rests on the fitted dose curve; in most records, active means well fitted cell-killing curve with a large enough effect in the repeat runs; inconclusive means weak or mixed curves, or effect the other way; inactive means flat fitted curve, though single readings scatter.
readout type: activity change, negative = cytotoxicity

See these solved cases before continuing.
- CN(C)c1cc(NC(=O)CNC(C)(C)C)c(O)c2c1C[C@H]1C[C@H]3[C@H](N(C)C)C(=O)C(C(N)=O)=C(O)[C@@]3(O)C(=O)C1=C2O: inactive
- N#CC1(N)CCCCC1: inactive
- CCOC(=O)c1ccc(N(C)C)cc1: inactive
- CCCCCCC(O)CO (stereo unspecified): inactive
- CCOC(=O)CC(C(C)=O)C(C)=O: inactive

// switching to the query molecule
Q) Query activity change, negative = cytotoxicity for CCCCCC(CC)OC(=O)CCCOc1ccc(Cl)cc1Cl (stereo unspecified)
A) inactive

----------
# tested on: Androgen receptor (Homo sapiens) (UniProt P10275)
# Sequence (P10275 whole entry, looked up): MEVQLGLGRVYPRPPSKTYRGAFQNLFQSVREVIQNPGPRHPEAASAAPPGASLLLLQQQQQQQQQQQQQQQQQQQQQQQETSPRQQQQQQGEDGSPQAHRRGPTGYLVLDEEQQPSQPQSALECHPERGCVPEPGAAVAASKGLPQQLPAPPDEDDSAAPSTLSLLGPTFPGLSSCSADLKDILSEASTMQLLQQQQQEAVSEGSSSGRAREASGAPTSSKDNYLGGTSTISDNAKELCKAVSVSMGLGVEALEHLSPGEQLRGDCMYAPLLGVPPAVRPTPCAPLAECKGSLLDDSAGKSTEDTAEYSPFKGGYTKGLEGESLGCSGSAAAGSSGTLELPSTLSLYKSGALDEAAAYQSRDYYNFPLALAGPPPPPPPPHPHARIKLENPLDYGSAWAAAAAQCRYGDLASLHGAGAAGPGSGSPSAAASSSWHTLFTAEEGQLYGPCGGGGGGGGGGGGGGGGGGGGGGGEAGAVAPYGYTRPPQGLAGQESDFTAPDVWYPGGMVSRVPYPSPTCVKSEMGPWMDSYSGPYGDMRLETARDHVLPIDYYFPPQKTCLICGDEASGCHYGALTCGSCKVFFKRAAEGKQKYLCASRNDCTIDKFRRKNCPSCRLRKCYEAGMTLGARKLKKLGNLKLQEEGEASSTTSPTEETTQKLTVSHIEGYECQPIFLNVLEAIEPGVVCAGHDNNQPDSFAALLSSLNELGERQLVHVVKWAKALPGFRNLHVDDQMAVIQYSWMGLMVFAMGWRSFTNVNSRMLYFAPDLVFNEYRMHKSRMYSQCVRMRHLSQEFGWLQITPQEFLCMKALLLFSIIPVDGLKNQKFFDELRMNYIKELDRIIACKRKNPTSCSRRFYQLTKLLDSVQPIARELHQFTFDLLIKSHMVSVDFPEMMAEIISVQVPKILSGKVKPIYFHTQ
# procedure text: qHTS assay to identify small molecule antagonists of the androgen receptor (AR) signaling pathway using the MDA cell line in the presence of 0.5 nM R1881 (AID 1259243); further: nearly all actives have a fitted effect of over 50% in size
# measurement context: MDA-kb2 MMTV-luciferase, R1881 0.5 nM, 16 h; series mostly up to 92.4 µM
Results filed as inconclusive are left out. The source made the active and inactive calls. The call rests on the fitted dose curve; in most records, active means well fitted inhibition curve with a large enough effect in the repeat runs; inconclusive means weak or mixed curves; inactive means no such curve, though single readings can be large or run the other way.
Bench note: report the call from active, inactive

Q) Write down the call the test reported for this molecule. Item: COC(C)(C)CC(C)=O
A) inactive

Q) Write down the call the test reported for this molecule. Item: Cc1ccc2cccnc2c1
A) inactive

----------
# tested on: Progesterone receptor (Homo sapiens)
# procedure text: qHTS assay to identify small molecule agonists of the progesterone receptor (PR) signaling pathway (AID 1346784); further: nearly all actives have a fitted effect of over 30% in size
# measurement context: PR-UAS-bla HEK293T, beta-lactamase FRET ratio, 16 h; series mostly up to 92.4 µM
Results filed as inconclusive are left out. Activity calls are given as the source filed them. Calls come from the whole dose curve.
Bench note: report the call from Yes = active, No = inactive

Check out these entries, answers already filled in.
• CCCC(=O)OC = No
• C=CCON/C(CCC)=C1\C(=O)CC(C)(C)C(C(=O)OC)=C1O = No
• Cc1cc(O)c(Cl)cc1C = No
• C=CCOC(=O)CCCCCCCC = No
• COc1cnc(NS(=O)(=O)c2ccc(N)cc2)nc1 = No
• COc1cc(OC)cc(OC)c1 = No

// switching to the query compound
Q) Write down the call the test reported for this compound. Item: COC(C)(C)CC(C)=O
A) No

----------
# tested on: Estrogen receptor beta (Homo sapiens) (UniProt Q92731)
# Sequence (Q92731 whole entry, looked up): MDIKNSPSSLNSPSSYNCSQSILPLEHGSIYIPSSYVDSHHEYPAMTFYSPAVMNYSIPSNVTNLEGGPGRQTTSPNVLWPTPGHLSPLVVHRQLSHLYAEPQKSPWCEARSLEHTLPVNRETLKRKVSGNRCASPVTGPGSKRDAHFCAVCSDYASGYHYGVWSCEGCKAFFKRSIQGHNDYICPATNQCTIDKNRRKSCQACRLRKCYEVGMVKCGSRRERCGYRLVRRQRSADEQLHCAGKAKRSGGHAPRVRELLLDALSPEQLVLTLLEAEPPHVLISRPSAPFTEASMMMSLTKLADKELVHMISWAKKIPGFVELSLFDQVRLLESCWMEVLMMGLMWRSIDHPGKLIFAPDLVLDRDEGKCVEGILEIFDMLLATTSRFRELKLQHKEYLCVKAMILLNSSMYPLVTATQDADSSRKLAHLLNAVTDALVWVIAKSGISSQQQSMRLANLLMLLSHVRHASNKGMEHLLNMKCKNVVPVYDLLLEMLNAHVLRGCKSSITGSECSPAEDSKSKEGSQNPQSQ
# procedure text: qHTS assay to identify small molecule antagonists of the estrogen receptor beta (ER-beta) signaling pathway (AID 1259378)
# measurement context: ER-beta-UAS-bla HEK293T, beta-lactamase FRET ratio, 16 h; series mostly up to 92.4 µM
Results filed as inconclusive are left out. The source made the active and inactive calls. The call rests on the fitted dose curve; in most records, active means well fitted inhibition curve with a large enough effect in the signal ratio in the repeat runs (not every such curve was filed as active); inconclusive means weak or mixed curves, or effect the other way; inactive means no such curve, though single readings can be large or run the other way; the % refers to the signal ratio.
readout type: activity, negative = inhibition

See these solved cases before continuing.
• COC(=O)c1c(C)cc(O)c(C)c1O = inactive
• CN(C)CCc1c[nH]c2ccc(C[C@H]3COC(=O)N3)cc12 = inactive
• O=C1c2ccccc2C(=O)N1CO = inactive
• CC(O)C(CO)C(C)O (configuration not stated) = inactive
• O=C1Nc2ccccc2C1=O = inactive
• CC(C)(C)C(=O)CC(=O)C(C)(C)C = inactive

// switching to the query compound
Q) Query activity, negative = inhibition for COc1cc(C(=O)NC2CCCNC2)cc(OC)c1OC (configuration not stated)
A) inactive

----------
# procedure text: qHTS assay to identify small molecule agonists of the hypoxia (HIF-1) signaling pathway - cell viability counter screen (AID 1224844); further: nearly all actives have a fitted effect of over 50% in size
# measurement context: HRE-bla ME-180 viability, CellTiter-Glo luminescence, 17 h; series mostly up to 76.8 µM
# From the text: National Center for Advancing Translational Sciences [NCATS] NIH Chemical Genomics Center [NCGC] U.S. Environmental Protection Agency [EPA] National Institutes of Environmental Health Sciences [NIEHS] National Toxicology Program [NTP] U.S. Food and Drug Administration [FDA] Hypoxia-inducible factor-1 (HIF-1) is the major hypoxia-regulated transcription factor that controls cellular responses to low oxygen concentration. […]
Inconclusive results are not listed. Activity calls are given as the source filed them. Calls follow the shape of the full dose curve.
readout type: activity change, negative = cytotoxicity

See these solved cases before continuing.
- CCCCCCCCS(=O)(=O)O: inactive
- BrCCOc1ccccc1: inactive
- CC(=O)Nc1ccc(S(=O)(=O)Nc2cc(C)on2)cc1: inactive
- CC/C=C\CCOC(=O)c1ccccc1: inactive
- CC(O)C(CO)C(C)O (stereo not drawn): inactive
- Cc1ccc(O)c(C(=O)c2ccccc2)c1: inactive

Q) Query activity change, negative = cytotoxicity for CCOCCOCCOC(C)=O
A) inactive

Q) Query activity change, negative = cytotoxicity for CCCCCCCOC(C)=O
A) inactive

----------
# procedure text: qHTS assay to identify small molecule antagonists of the estrogen related receptor (ERR) signaling pathway from Tox21 library - cell viability counter screen (AID 1224834); further: nearly all actives have a fitted effect of over 30% in size
# measurement context: ERR reporter cells viability, CellTiter-Fluor, 17.5 h; series mostly up to 92.4 µM
Results filed as inconclusive are left out. Activity calls are given as the source filed them. The call rests on the fitted dose curve; in most records, active means well fitted cell-killing curve with a large enough effect in the repeat runs; inconclusive means weak or mixed curves; inactive means flat fitted curve, though single readings scatter.
readout type: viability change, negative = cytotoxic

See these solved cases before continuing.
* C[C@H]1COc2c(C3(N)CC3)c(F)cc3c(=O)c(C(=O)O)cn1c23 | inactive
* CCOC(=O)CC | inactive
* COC(=O)/C=C(\C)CCC=C(C)C | inactive
* CCCCCCCCCCCBr | inactive
* CC(C)(C)C(=O)CCc1ccc(Cl)cc1 | inactive
* CC(C)c1cc(C(C)C)cc(C(C)C)c1 | inactive
* Cc1cc(O)c(Cl)cc1C | inactive

// switching to the query compound
Q) Query viability change, negative = cytotoxic for C=COCCCCO
A) inactive

----------
# tested on: Cytochrome P450 2C9 (Homo sapiens)
# procedure text: Cytochrome P450 Family 2 Subfamily C Member 9 (CYP2C9) small molecule antagonists: luciferase reporter qHTS assay (AID 1671198); further: nearly all actives have a fitted effect of over 50% in size
# measurement context: P450-Glo CYP2C9 enzyme assay, luciferin luminescence; series mostly up to 115 µM
Results filed as inconclusive are left out. The source made the active and inactive calls. Calls come from the whole dose curve; as a rule, active = well fitted inhibition curve with a large enough effect in the repeat runs; inconclusive = weak or mixed curves; inactive = no such curve, though single readings can be large or run the other way.
Bench note: report the call from TRUE (active), FALSE (inactive)

Check out these entries, answers already filled in.
- CCC(=O)OCCOc1ccccc1: FALSE
- CN1CCN(C(=O)C2CCCCC2)CC1: FALSE
- CO/N=C(\C(=O)O)c1csc(NC(=O)CCl)n1: FALSE
- Cc1cc(=O)oc2cc(O[C@@H]3SC[C@@H](O)[C@H](O)[C@H]3O)ccc12: FALSE
- C[C@@H]1CCC[C@H](C)N1CCCC(O)(c1ccccc1)c1ccccn1 (stereo partly drawn): FALSE

Q) Write down the call the test reported for this compound. Item: O=C(CCBr)N1CCN(C(=O)CCBr)CC1
A) FALSE

Q) Write down the call the test reported for this compound. Item: C[C@@H](CN1CC(=O)NC(=O)C1)N1CC(=O)NC(=O)C1
A) FALSE

Q) Write down the call the test reported for this compound. Item: O=C(O)P(=O)(O)O
A) FALSE

Q) Write down the call the test reported for this compound. Item: O=C(c1ccccc1)c1cccc(O)c1
A) FALSE

Q) Write down the call the test reported for this compound. Item: CC(=O)O[C@@H]1CC2C3CCc4cc(OC(=O)c5ccccc5)ccc4C3CCC2(C)[C@H]1OC(C)=O (stereo partly drawn)
A) TRUE

----------
# procedure text: qHTS assay to identify small molecule antagonists of the estrogen related receptor signaling pathway with the pleiotropic PPARgamma coactivator (PGC) from Tox21 10K library (AID 1224841)
# measurement context: PGC/ERR reporter cell line, ONE-Glo luciferase, 18 h; series mostly up to 92.4 µM
Inconclusive results are not listed. Calls of active or inactive are those of the source. How the calls were made is not given here.
readout type: outcome

See these solved cases before continuing.
* Cc1ccc(OC(=O)CC(C)C)cc1 | inactive
* CC(CN1CC(=O)NC(=O)C1)N1CC(=O)NC(=O)C1 (centres undefined) | inactive
* CC/C=C\CCOC(=O)c1ccccc1 | inactive
* COC(=O)N/N=C/c1c[n+]([O-])c2ccccc2[n+]1[O-] | inactive
* Nc1nc(Cl)cc(Cl)n1 | inactive

Q) Query outcome for C=CC(=O)CC
A) inactive

Q) Query outcome for CN1C(CCl)Nc2cc(Cl)c(S(N)(=O)=O)cc2S1(=O)=O (centres undefined)
A) inactive

Q) Query outcome for CC(C)OCCO
A) inactive

Q) Query outcome for Cc1ccc(N)nc1
A) inactive

Q) Query outcome for O=C(O)CCC(=O)Nc1ccc(S(=O)(=O)Nc2nccs2)cc1
A) inactive

Q) Query outcome for C[n+]1ccccc1/C=N/O
A) inactive

Q) Query outcome for CCC(C)(C)C
A) inactive

Q) Query outcome for CCCc1ncc(C(=O)O)s1
A) inactive

Q) Query outcome for C[Si](C)(C)O[Si](O)(O)O
A) inactive

Q) Query outcome for CCC(C)c1nccnc1OC (centres undefined)
A) inactive
